Experiment: Vapor-liquid equilibrium still, separation of 1,1,1-trichloroethane from methanol
Assay type: physicochemical
Details: 1,1,1-trichloroethane from methanol; vapor-liquid equilibrium still
quantity: Relative Volatility
Please reply with the number alone, leaving off any unit.

Sample records with Relative Volatility:
molecule: CCOC(=O)CC(C)=O [Ethyl acetoacetate]
Relative Volatility: 2.8
--
molecule: O=C1OCCO1 [Ethylene carbonate]
Relative Volatility: 3.3

# return recorded Relative Volatility for input CCCCOCCO
3.2

# return recorded Relative Volatility for input CCCCOCCOC(C)=O [Ethylene glycol butyl ether acetate]
2.1

# return recorded Relative Volatility for input CC(C)CCCCCCCO
2.3

# return recorded Relative Volatility for input COCC(C)OC(C)=O (stereo not shown) [Propylene glycol methyl ether acetate]
2.3

# return recorded Relative Volatility for input CC(=O)CCC(C)C
2.3

# return recorded Relative Volatility for input CCCCCOC(C)=O [Amyl acetate]
2.1

# return recorded Relative Volatility for input CC(C)[N+](=O)[O-]
2.0

# return recorded Relative Volatility for input CCC[N+](=O)[O-]
2.1
